experiment: chemical genetic growth profiling, strain panel (AID 1159580);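 also: tested at 20 µM; growth read once vehicle control cultures reached saturation at 30 °C; 1 = growth at the plate median or of vehicle wells; lower values mean less growth of the strain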; settings: S. cerevisiae deletion strains, growth OD, locus YLR221C, strain rsa3, hits give low values
The campaign covered roughly 5,500 compounds. About 2,000 (36%) were called active. About 18% were inconclusive and are not listed. Some of the results follow.
Listed below: normalized growth values for each entry.

Previously resolved entries follow.
1) CC(=O)Oc1cc2c(c(C)c1OC(C)=O)CC1OC13C2(C)CCC1(C)C2CC(C)(C(=O)O)CCC2(C)CCC13C (stereo not drawn) :: 1.03 (inactive)
2) O=C1c2ccccc2C(=O)C1c1ccccc1 :: 1 (inactive)

Continue with the molecule presented below.
Quick note, normalized growth for CC[C@H]1OC(=O)[C@H](C)[C@@H](O[C@H]2C[C@@](C)(OC)[C@@H](O)[C@H](C)O2)[C@H](C)[C@@H](O[C@@H]2O[C@H](C)C[C@H](N(C)C)[C@H]2O)[C@](C)(O)C[C@@H](C)[C@@H]2N[C@@H](COCCOC)O[C@H]([C@H]2C)[C@]1(C)O landed at 0.993 (inactive)

Data provenance: PubChem BioAssay AID1159580
